- protocol_description: Identification of proteins required for the processing of the EWS-FLI1 nascent transcript;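 further: robust z of luciferase light less the median z of siRNAs with the same seed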
- experimental_conditions: TC32 Ewing sarcoma NR0B1-luc vs CMV-luc, 48 h; screened at 20 nM (by protocol)
In all, about 59,000 sequences were measured (the read-out: median about -0.00055, lowest 2% from about -2 on). This is one part of a sample in which the lowest values are shown more often than they occur.
Please note: TRUE applies when seed-corrected z-score is -0.7 or greater, and FALSE applies otherwise.

- input_sequence: "UAAAGGUUGAGAAACUUGA against PRPF38A"
  category_label: "FALSE"

For this sequence, is measured seed-corrected z-score -0.7 or higher? UUUGCAGUCGCAAUAGUCA against PRKCSH
TRUE

###

Consider the following sequences; for each one, report its seed-corrected z-score.
- protocol_description: Identification of proteins required for the processing of the EWS-FLI1 nascent transcript;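 further: robust z of luciferase light less the median z of siRNAs with the same seed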
- experimental_conditions: TC32 Ewing sarcoma NR0B1-luc vs CMV-luc, 48 h; screened at 20 nM (by protocol)
In all, about 59,000 sequences were measured (the read-out: median about -0.00055, lowest 2% from about -2 on). The sample as a whole holds a higher share of the lowest values than the screen did.
One number for each entry.

Below are 6 sequences. Give each one its seed-corrected z-score.
1. UUUCUUAGAAAGCGGUUCC against MORN5
2. UACCGUGACAAAAUAAGUG against LOC728175
3. UAGGGUGAGUCAAUAAUGG against CSTF2T
4. AAGCCUAUGAUGAUCACUG against C3orf52
5. UCCUGGAUACCUAACACCC against USP26
6. UUGGUUGUCAGAGUAGGUG against HSPA1L

[-0.0295, 0.818, -0.0525, -0.911, 0.09, -2.39]

###

- protocol_description: Identification of proteins required for the processing of the EWS-FLI1 nascent transcript;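 further: robust z of luciferase light less the median z of siRNAs with the same seed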
- experimental_conditions: TC32 Ewing sarcoma NR0B1-luc vs CMV-luc (EWS-FLI1 target promoter against control promoter), 48 h; screened at 20 nM (by protocol)
Whole data set: some 59,000 sequences, median the read-out near -0.00055, cut for the lowest 2% near -2. The full list was thinned out, with the lowest values kept by preference.
Lab note: cut-off is -0.3. Strictly less in seed-corrected z-score is met. Exactly -0.3 or more is not met.

Consider the worked cases shown below.
- input_sequence: "UUCGACUUGGUUGCAAUGG against PPBP"
  category_label: "not met"
- input_sequence: "AACUGUCUUGUUGCUCUUG against NFKBID"
  category_label: "not met"
- input_sequence: "UAGACAACAUCAGUGAUCC against RPS8P4"
  category_label: "not met"
- input_sequence: "UUUUUAAUGCCUUAUAGUC against TTLL13P"
  category_label: "not met"
- input_sequence: "UUGCGACUCAUGAAAUGGG against INO80"
  category_label: "not met"
- input_sequence: "UUUGCGGUCACAAUUGGGC against IGFBP5"
  category_label: "met"
- input_sequence: "UUCGUUACAGAACUGACCG against YEATS2"
  category_label: "not met"
- input_sequence: "UGAGCUACCAUAUGCUUCA against RBMY1F"
  category_label: "not met"
- input_sequence: "UUCUGUUCUACCUCGCUUC against WDR60"
  category_label: "met"
- input_sequence: "UGAGUUACAGGGACCGAAG against LINC00944"
  category_label: "not met"

# strict comparison: is reported seed-corrected z-score < -0.3? input = AAAAGUGGAACUUCUUCUC against TTLL8
met

// next record UCCUCUGCGAAGUUCUUGG against PANX2
met

Now consider UCACGUGUAAAGGAUCACG against RTN4IP1 and answer again.
not met

Again, but for AUUGUAACGGGUUUUGUUC against CHRNB4
met

What would you report for UUGGACAAAAGAUAAGAGC against SNRNP40 ?
not met

Further, for AAGAAUUCCAUACAUCUUC against ACKR1 ?
not met

Follow-up entry: UAACUUUUCCCUUAUUCAG against FAM90A3P
not met

Now the same for AGAGUUAAUUGGUAUGUCC against GIGYF1
not met

Now the same for AGUACUACAAACCAAAUCC against FAM35A
not met

What do you have for UUCUUUUCCAGGUACGUGA against CCDC105 ?
met

Cool, now UGUUGAGUAAGGAGGGACC against HSPB8
not met

Another sequence to look at: UUCUGCUUUGCAUAUCUCC against POU5F1
met

Values from PubChem BioAssay AID1159506
